# subject.of.test: Par-6 CRIB-PDZ module (CRIB-PDZ^130–255) (D. melanogaster) (UniProt O97111)
# assay.overview: fluorescence polarisation
Where no end group is shown, it is not given here. The star is where a group is joined. RhodamineB = CCN(CC)c1ccc2c(-c3ccccc3C(=O)*)c3ccc(=[N+](CC)CC)cc-3oc2c1
experimental.endpoint: Kd

>>> df
                                     binder  test_value
0  RhodamineB-VKESLV [N-terminally Rhodamine B-labeled VKESLV peptide]       54 µM
1  RhodamineB-GEERLI [N-terminally Rhodamine B-labeled GEERLI peptide]      7.3 µM
